Reference for the values: the supplement of paper PMC7125110

B1: glmS ribozyme (parent)
chain: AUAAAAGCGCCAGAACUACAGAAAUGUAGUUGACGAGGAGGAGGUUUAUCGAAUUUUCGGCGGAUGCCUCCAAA

variants of: B1; test: self-cleavage kobs at 640 uM GlcN6P; higher = faster cleavage; RNA array; conditions: with glucosamine-6-phosphate
Variants at the floor of the assay were thinned out.
# self-cleavage kobs at 640 uM GlcN6P per record follows

• G7U A15U U47G = < 1e-05 s⁻¹
• A12C C67A C68A = 7.04e-05 s⁻¹
• C34A U56C = < 1e-05 s⁻¹
• A6C A42U C50U U57A G62C = < 1e-05 s⁻¹
• U54C C71U = 0.00401 s⁻¹
• G9U A53C = < 1e-05 s⁻¹
• U56G C71U = 0.00222 s⁻¹
• G43U C58U = < 1e-05 s⁻¹

Challenge: Provide one value: measured self-cleavage kobs at 640 uM GlcN6P of C8A G60U
Response given: < 1e-05 s⁻¹

Challenge: Provide one value: measured self-cleavage kobs at 640 uM GlcN6P of G44U G63U
Response given: < 1e-05 s⁻¹

Challenge: Provide one value: measured self-cleavage kobs at 640 uM GlcN6P of A48C C58U
Response given: < 1e-05 s⁻¹

Challenge: Provide one value: measured self-cleavage kobs at 640 uM GlcN6P of A15U C68U
Response given: 0.000127 s⁻¹
